Molecular target: T1, monkey macaca fascicularis PRLR construct with an HA tag on HEK293/mfPRLR cells (macaca fascicularis, UniProt A0A2K5WXK1 25-619)
T1 construct: stably transfected into HEK293
T1 sequence: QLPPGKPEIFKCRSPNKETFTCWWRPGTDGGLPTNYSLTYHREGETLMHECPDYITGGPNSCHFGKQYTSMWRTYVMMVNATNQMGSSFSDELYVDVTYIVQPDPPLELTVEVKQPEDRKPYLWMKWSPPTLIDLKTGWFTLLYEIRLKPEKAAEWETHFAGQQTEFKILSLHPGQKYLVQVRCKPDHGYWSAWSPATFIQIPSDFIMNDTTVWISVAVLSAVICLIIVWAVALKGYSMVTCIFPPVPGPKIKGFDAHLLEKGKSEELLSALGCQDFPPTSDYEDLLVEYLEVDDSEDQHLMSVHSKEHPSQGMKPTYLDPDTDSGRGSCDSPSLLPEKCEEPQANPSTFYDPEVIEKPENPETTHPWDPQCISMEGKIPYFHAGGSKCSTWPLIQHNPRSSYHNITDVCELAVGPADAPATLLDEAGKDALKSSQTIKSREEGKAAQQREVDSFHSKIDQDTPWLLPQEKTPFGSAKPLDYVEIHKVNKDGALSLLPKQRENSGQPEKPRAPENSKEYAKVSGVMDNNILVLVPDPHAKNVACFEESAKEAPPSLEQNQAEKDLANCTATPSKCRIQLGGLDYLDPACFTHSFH
Assay: FACS on HEK293/mfPRLR cells
assay_metric: FACS Cell Binding (Fold Above Background) (fold)
Numbers only, in fold.

# count of solved cases: 2
1. H1H6797P (antibody, human IgG1, V domains shown, human IgG1 Fc (H1H)) VH: EVQLVESGGGLVQPGGSLRLSCIVSGFTFSGSWMSWVRQLPGKGLEWVANIKEDGSDSYYVDSVEGRFTISRDNAKSSLYLQMNSLRVDDTAVYFCARARTVPLHYWGQGTLVTVSS VL: DIQMTQSPSTLSASVGDRVTITCRASQSINIWLAWYQQKPGKAPKLLIYRASYLESGVPSSFAGGGSGTEFTLTISSLQPDDFGTYYCQHYNSYPFTFGQGTKLEIK    25
2. H1H6792P (antibody, human IgG1, V domains shown, human IgG1 Fc (H1H)) VH: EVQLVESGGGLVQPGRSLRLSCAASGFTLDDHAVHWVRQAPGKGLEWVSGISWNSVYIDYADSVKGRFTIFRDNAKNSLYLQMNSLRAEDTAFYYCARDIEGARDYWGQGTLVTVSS VL: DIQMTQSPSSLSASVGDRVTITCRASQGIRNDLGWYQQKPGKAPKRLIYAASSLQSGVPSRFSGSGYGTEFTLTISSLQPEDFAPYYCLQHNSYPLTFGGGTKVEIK    28

IN: Give its FACS Cell Binding (Fold Above Background) value. Item: H1H6782P (antibody, human IgG1, V domains shown, human IgG1 Fc (H1H)) VH: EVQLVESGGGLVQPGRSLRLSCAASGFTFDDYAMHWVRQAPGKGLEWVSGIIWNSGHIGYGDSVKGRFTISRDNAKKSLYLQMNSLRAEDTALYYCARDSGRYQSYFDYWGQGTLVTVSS VL: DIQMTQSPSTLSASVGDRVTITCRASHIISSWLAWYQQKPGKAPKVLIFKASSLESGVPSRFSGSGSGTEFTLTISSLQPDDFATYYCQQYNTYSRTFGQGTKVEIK
OUT: 32
